biological target: Short transient receptor potential channel 4 (Mus musculus) (UniProt Q9QUQ5); assay: blockers of DAMGO-evoked TRPC4 calcium flux – cell-based, second round, Fluo4, HEK293 TRPC4beta/mu-opioid, 1 µM, confirmation (AID 2637); conditions: at 1 µM
Sequence (Q9QUQ5 whole entry, looked up): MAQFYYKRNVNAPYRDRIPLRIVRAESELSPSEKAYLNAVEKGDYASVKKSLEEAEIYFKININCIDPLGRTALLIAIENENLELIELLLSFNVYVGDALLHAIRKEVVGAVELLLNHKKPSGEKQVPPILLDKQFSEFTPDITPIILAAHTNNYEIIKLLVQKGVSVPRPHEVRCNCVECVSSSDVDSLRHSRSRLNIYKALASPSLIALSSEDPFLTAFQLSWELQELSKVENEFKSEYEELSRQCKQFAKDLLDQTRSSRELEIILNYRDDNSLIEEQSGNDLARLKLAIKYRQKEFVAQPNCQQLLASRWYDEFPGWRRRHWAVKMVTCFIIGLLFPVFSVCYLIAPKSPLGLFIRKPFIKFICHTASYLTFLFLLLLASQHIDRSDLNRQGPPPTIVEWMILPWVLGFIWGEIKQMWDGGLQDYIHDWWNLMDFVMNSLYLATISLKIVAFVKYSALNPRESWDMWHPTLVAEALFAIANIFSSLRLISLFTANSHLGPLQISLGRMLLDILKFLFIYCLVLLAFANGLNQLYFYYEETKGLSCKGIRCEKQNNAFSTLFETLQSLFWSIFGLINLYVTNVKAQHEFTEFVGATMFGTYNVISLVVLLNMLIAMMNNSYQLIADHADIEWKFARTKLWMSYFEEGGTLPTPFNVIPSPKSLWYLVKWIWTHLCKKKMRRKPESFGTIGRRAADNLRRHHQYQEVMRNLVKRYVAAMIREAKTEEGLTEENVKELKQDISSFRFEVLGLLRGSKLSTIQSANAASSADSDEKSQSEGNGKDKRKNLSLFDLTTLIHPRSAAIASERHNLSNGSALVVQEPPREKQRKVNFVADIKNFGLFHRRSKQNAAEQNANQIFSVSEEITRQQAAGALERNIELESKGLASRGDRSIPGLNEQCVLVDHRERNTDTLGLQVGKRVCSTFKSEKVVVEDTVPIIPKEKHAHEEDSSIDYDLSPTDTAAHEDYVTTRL
Calls of active or inactive are those of the source.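 Rule for the calls: active = calcium signal ratio cut to more than 3 SD under the fully stimulated control mean yet still positive, in both repeats and the primary screen; inactive = the rest.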
Assign a class; possible classes are yes (active), no (inactive)

Worked set:
INSERT INTO assay_data (compound, discrete_label) VALUES
  ('O=C(O)CCNc1nc(-c2ccccc2)c2cc(Br)ccc2n1', 'no'),
  ('CCCCCCc1cc2cc(-c3nnc(-c4cc(OC)c(OC)c(OC)c4)o3)c(=O)oc2cc1O', 'no'),
  ('COc1cc(CNC2CCCCCCC2)cc(Br)c1OCC#N', 'no'),
  ('Cc1cc(-c2sccc2C)nc(-n2cccc2)n1', 'no'),
  ('CC(C)c1ccc(S(=O)(=O)/N=C2\C=C(NS(=O)(=O)c3ccccc3)C(=O)c3ccccc32)cc1', 'no');

[ask] Which outcome was entered for the compound OC1(c2ccc(F)cc2)CCN(Cc2ccccc2)C1 (stereo unspecified) in this test?
[reply] yes

[ask] Same for CC(C)Sc1nc2sc3c(c2c2nnc(SCC(=O)NCc4ccco4)n12)CCCC3
[reply] no

[ask] Same for CC(C)Cc1nc(N2CCN(C(=O)C(C)C)CC2)c(C#N)c2c1CCC2
[reply] no

[ask] Same for CNc1nc(N2CCc3ccccc32)ncc1F
[reply] no

[ask] Same for O=C(NCCN1CCOCC1)c1ccc2c(c1)N(Cc1ccc(F)cc1)C(=O)CS2
[reply] no

[ask] Same for CCOc1ccc(Br)cc1/C=N/O
[reply] no

* * *

molecular target: Short transient receptor potential channel 6 (Mus musculus); experiment: TRPC6 blockade by TRPC4 inhibitor hits – cell-based, HEK293, membrane potential dye, duplicate, selectivity assay for TRPC4 inhibitor project, confirmation (AID 434948); settings: HEK293 TRPC6, membrane potential dye fluorescence, at 10 µM, stimulated with maximal-effect acetylcholine
Activity calls are given as the source filed them.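 The calls were made as follows: active = active in primary screen and both duplicates, each dropping signal beyond three positive-control SD with fluorescence still positive; inactive = the rest.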
Assign a class; possible classes are true for active, false for inactive

INSERT INTO results (compound, measured_target, discrete_label) VALUES
  ('CCCCCc1c(O)nc(SCCN(C)C)[nH]c1=O', 'Short transient receptor potential channel 6 (Mus musculus)', 'false'),
  ('COc1cc(CNC2CCCC2)cc(Cl)c1OCc1ccc(F)cc1', 'Short transient receptor potential channel 6 (Mus musculus)', 'false'),
  ('O=[N+]([O-])c1ccc(CN2CCN(c3nc4ccccc4s3)CC2)cc1', 'Short transient receptor potential channel 6 (Mus musculus)', 'false'),
  ('O=C(Nc1ccccc1Oc1cccnc1)C1CCCN(Cc2cccc(Cl)c2)C1 (stereo not drawn)', 'Short transient receptor potential channel 6 (Mus musculus)', 'false');

[ask] Which outcome was entered for the compound Cc1cc2oc(C(=O)N(Cc3ccco3)C3CCS(=O)(=O)C3)cc(=O)c2cc1Cl (stereo not drawn) in this test?
[reply] false

[ask] Same for O=C(C1CC1)N1CCc2cc(S(=O)(=O)NC3CCN(Cc4ccccc4)CC3)ccc21
[reply] false

[ask] Same for CCC(=O)N1CCc2cc(Br)cc(S(=O)(=O)NCCCN(CC)Cc3ccccc3)c21
[reply] false

[ask] Same for COc1ccc(CCN(C)C(=O)c2cc(S(=O)(=O)N3CCCCC3)ccc2Cl)cc1OC
[reply] false

[ask] Same for O=C(c1ccc([N+](=O)[O-])s1)N1CCCc2ccccc21
[reply] false

[ask] Same for O=C(NCCCN1CCOCC1)c1ccc(NC(=O)C2COc3ccccc3O2)cc1 (stereo not drawn)
[reply] false

[ask] Same for O=C(CSc1nnc(-c2ccc(Cl)cc2Cl)n1C1CCCCC1)N1CCCC1
[reply] false

[ask] Same for CCOC(=O)c1cc(=O)n(Cc2ccccc2C)c2ccccc12
[reply] false

[ask] Same for O=c1c2ccccc2nc(SCc2nc3ccccc3s2)n1CCCO
[reply] false

[ask] Same for N#Cc1ccc(OCC(O)CN2CCN(c3ncc(C(F)(F)F)cc3Cl)CC2)cc1 (stereo not drawn)
[reply] false

[ask] Same for CC(C)(C)C(=O)/C=c1\s/c(=C\c2ccc(-c3ccc([N+](=O)[O-])cc3)o2)c(=O)n1CC(=O)NC(N)=O
[reply] false

[ask] Same for COc1ccc(C(CNc2nc(-c3cccnc3)nc3ccccc23)N(C)C)cc1 (stereo not drawn)
[reply] false

[ask] Same for Cc1ccc(C(=O)NNC(=S)NC(=O)COc2ccccc2)cc1
[reply] false

[ask] Same for CN(C)CCCOC(=O)c1ccc(Cl)cc1Cl
[reply] false

[ask] Same for OCCNCc1cc(Br)ccc1OCc1ccc(Cl)cc1Cl
[reply] false

[ask] Same for C=CCNC(=S)N1CCN(C2CCCCC2)CC1
[reply] false

[ask] Same for Cc1ccc(C(=O)Nc2ccccc2C(=O)N2CC3(C)CC2CC(C)(C)C3)cc1 (stereo not drawn)
[reply] false

[ask] Same for O=C1NC(c2ccccc2)=C(c2nc3ccccc3s2)C(c2ccccc2)N1 (stereo not drawn)
[reply] false
